- target: CYP3A4 (Homo sapiens, UniProt P08684)
- Sequence (P08684 whole entry): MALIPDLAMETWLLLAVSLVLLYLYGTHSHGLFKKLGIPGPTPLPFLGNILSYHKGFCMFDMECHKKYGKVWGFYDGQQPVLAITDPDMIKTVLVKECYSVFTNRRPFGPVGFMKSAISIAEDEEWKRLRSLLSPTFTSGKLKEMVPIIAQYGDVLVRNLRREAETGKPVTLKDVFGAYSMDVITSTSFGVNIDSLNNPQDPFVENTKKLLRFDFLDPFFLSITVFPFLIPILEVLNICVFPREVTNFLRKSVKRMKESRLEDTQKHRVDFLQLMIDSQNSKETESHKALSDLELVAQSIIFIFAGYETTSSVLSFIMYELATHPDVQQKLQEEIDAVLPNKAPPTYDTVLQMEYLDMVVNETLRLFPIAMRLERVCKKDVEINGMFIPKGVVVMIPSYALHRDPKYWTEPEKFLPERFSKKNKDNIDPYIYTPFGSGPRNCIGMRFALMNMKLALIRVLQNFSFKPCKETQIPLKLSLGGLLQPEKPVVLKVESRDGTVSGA
- protocol: Determination of compound Kiapp against recombinant CYP3A4 enzyme (BFC fluorescent substrate)
- Format: biochemical
- measurementSetup: Super. enzyme preparation, read-out: Kiapp (BFC, Super.)
pKi: −log10 of the molar value.
outcomeMeasure: pKi

[[record]]
molsmiles = "O=C(NCCOc1ccccc1)c1ccccc1S(=O)(=O)Nc1cccnc1"
recordedvalue = 7.65

[[record]]
molsmiles = "Cc1ccc(CNC(=O)c2ccccc2S(=O)(=O)Nc2cccnc2)cc1"
recordedvalue = 7.58

[[record]]
molsmiles = "COc1cncc(NS(=O)(=O)c2ccccc2C(=O)NCc2ccc(C#N)cc2Cl)c1"
recordedvalue = 7.59


###

- target: UniProtKB P08684
- protocol: Determination of compound Kiapp against recombinant CYP3A4 enzyme (BFC fluorescent substrate)
- Assay type: biochemical
- measurementSetup: Baculo. enzyme preparation, read-out: Kiapp (BFC, Baculo.)
pKi: −log10 of the molar value.
outcomeMeasure: pKi

[[record]]
compound = "Cc1cncc(NS(=O)(=O)c2ccccc2C(=O)N(C)Cc2ccccc2)c1 [Example 335]"
recordedvalue = 7.01

[[record]]
compound = "CN(Cc1cccc(F)c1)C(=O)c1ccccc1S(=O)(=O)Nc1cccnc1 [Example 350]"
recordedvalue = 6.86

[[record]]
compound = "CN(CCc1ccccc1)C(=O)c1ccccc1S(=O)(=O)Nc1cccnc1 [Example 68]"
recordedvalue = 6.94


###

- target: CYP3A4 (Homo sapiens)
- protocol: Determination of compound Kiapp against recombinant CYP3A4 enzyme (BFC fluorescent substrate)
- Format: biochemical
- measurementSetup: Baculo. enzyme preparation, read-out: Kiapp (BFC, Baculo.)
pKi: −log10 of the molar value.
outcomeMeasure: pKi

[[record]]
compound = "COc1ccncc1NS(=O)(=O)c1ccccc1C(=O)N[C@H](C)C(C)C"
target = "CYP3A4 (Homo sapiens)"
outcomemeasure = "pKi"
recordedvalue = 6.36

[[record]]
compound = "CN(Cc1ccc(F)c(F)c1)C(=O)c1ccccc1S(=O)(=O)Nc1cccnc1"
target = "CYP3A4 (Homo sapiens)"
outcomemeasure = "pKi"
recordedvalue = 7.00

[[record]]
compound = "COc1cncc(NS(=O)(=O)c2ccccc2C(=O)NCc2cccc(F)c2F)c1"
target = "CYP3A4 (Homo sapiens)"
outcomemeasure = "pKi"
recordedvalue = 7.14


A = COc1cncc(NS(=O)(=O)c2ccccc2C(=O)N(C)CCOc2ccccc2)c1
B = COc1cncc(NS(=O)(=O)c2ccccc2C(=O)N(C)C(C)C)c1
C = COc1cncc(NS(=O)(=O)c2ccccc2C(=O)N2CCOCC2)c1
D = CC(C)(NC(=O)c1ccccc1S(=O)(=O)Nc1cccnc1)C1CC1
Input: Order the items by recorded pKi; the first position goes to the largest value. Provide the labels, sequenced as the question asks.
Output: A, D, B, C
(A: 6.98, D: 6.78, B: 6.48, C: 6.24)

A = CC1CCN(C(=O)c2ccccc2S(=O)(=O)Nc2cccnc2)CC1
B = Cc1cncc(NS(=O)(=O)c2ccccc2C(=O)N(C)CC2CCCC2)c1
Input: // which entry has the larger pKi value, A or B ? To answer, give the label that identifies your chosen option.
Output: B
(B: 7.46, A: 6.31)

1 = COc1cncc(NS(=O)(=O)c2ccc(F)cc2C(=O)N2CCCC(C)C2)c1 (stereo not drawn)
2 = COc1cncc(NS(=O)(=O)c2ccccc2C(=O)NCCc2ccc(F)c(F)c2)c1
Input: // which entry has the larger pKi value, 1 or 2 ? To answer, give the label that identifies your chosen option.
Output: 2
